Parameter inhibition at 50 µg/mL: see the listing below.
# Test system: Gibberella zeae
# protocol: microbe, parasite or virus in culture
# Type: cell-based
# test.parameters: Fusarium graminearum, read-out: Fungicidal activity inhibition, GZ, 50 μg/mL, G. zeae

[
  {
    "compound": "CO/N=C(/C(=O)NCC(F)F)c1ccccc1CO/N=C(\\N)c1snc(Cl)c1Cl",
    "inhibition at 50 µg/mL": "> 30%"
  },
  {
    "compound": "CO/N=C(/C(=O)N[C@@H](C)CSC)c1ccccc1CO/N=C(\\N)c1snc(Cl)c1Cl [CL04-25E]",
    "inhibition at 50 µg/mL": "> 30%"
  },
  {
    "compound": "CO/N=C(/C(=O)NC(C)(C)CSC)c1ccccc1CO/N=C(\\N)c1snc(Cl)c1Cl [CL04-25D]",
    "inhibition at 50 µg/mL": "21.2%"
  },
  {
    "compound": "CO/N=C(/C(=O)OC)c1ccccc1CO/N=C(\\C)c1snc(Cl)c1Cl [CL04-15A]",
    "inhibition at 50 µg/mL": "> 30%"
  },
  {
    "compound": "CO/N=C(/C(=O)NCC(F)F)c1ccccc1CO/N=C(C)/C=C/c1snc(Cl)c1Cl [CL04-32A]",
    "inhibition at 50 µg/mL": "> 30%"
  }
]

Q: For the compound CO/N=C(/C(=O)NC(C)(C)CSC)c1ccccc1CO/N=C(C)/C=C/c1snc(Cl)c1Cl [CL04-32E] , what inhibition at 50 µg/mL is on record?
Result: 24.2%

Q: Which inhibition at 50 µg/mL value belongs to CO/N=C(/C(=O)N[C@@H](C)CSC)c1ccccc1CO/N=C(\C)c1snc(Cl)c1Cl [CL04-22F] ?
Result: > 30%

----------
# System: Cercospora arachidicola
# protocol: Fungicide activity, mycelial growth inhibition on PDA plate
# Type: cell-based
# test.parameters: Mycosphaerella arachidis, 50 μg/mL, C. arachidicola; read-out: Fungicidal activity inhibition, CA
reported.endpoint: inhibition at 50 µg/mL
Please answer using a numeric value trailed by its unit.

Q: Item CNC(=O)/C(=N/OC)c1ccccc1CO/N=C(\C)c1snc(Cl)c1Cl [CL04-22D] has what recorded inhibition at 50 µg/mL?
Result: 87.5%

Q: # get_value(readout='inhibition at 50 µg/mL', item= C#CCNC(=O)/C(=N/OC)c1ccccc1CO/N=C(\C)c1snc(Cl)c1Cl [CL04-22B] )
Result: 35.7%

Q: Find the recorded inhibition at 50 µg/mL belonging to `CO/C=C(/C(=O)OC)c1ccccc1CO/N=C(\C)c1snc(Cl)c1Cl` and report it.
Result: 66.7%

Q: Find the recorded inhibition at 50 µg/mL belonging to CO/N=C(/C(=O)NC(C)(C)CSC)c1ccccc1CO/N=C(\N)c1snc(Cl)c1Cl [CL04-25D] and report it.
Result: 12.5%

Q: Query (compound): `CO/C=C(/C(=O)OC)c1ccccc1CO/N=C(\C)CC(=O)c1snc(Cl)c1Cl` ; field requested: inhibition at 50 µg/mL
Result: 75%

Q: Data request, read-out inhibition at 50 µg/mL, for CO/N=C(/C(=O)NCC(F)F)c1ccccc1CO/N=C(C)/C=C/c1snc(Cl)c1Cl [CL04-32A]
Result: 36%

----------
# Test system: Sclerotinia sclerotiorum
# protocol: Fungicide activity, mycelial growth inhibition on PDA plate
# Assay type: cell-based
# test.parameters: Sclerotinia sclerotiorum, 50 μg/mL, S. sclerotiorum; read-out: Fungicidal activity inhibition, SS
reported.endpoint: inhibition at 50 µg/mL (%)
Form entry: value (%) — number only.

Field: example entries. Status: answers known.
[
  {
    "compound": "CO/N=C(/C(=O)NC(C)(C)CSC)c1ccccc1CO/N=C(\\N)c1snc(Cl)c1Cl [CL04-25D]",
    "inhibition at 50 µg/mL, %": 52.9
  },
  {
    "compound": "CNC(=O)/C(=N/OC)c1ccccc1CO/N=C(\\C)c1snc(Cl)c1Cl [CL04-22D]",
    "inhibition at 50 µg/mL, %": 100
  },
  {
    "compound": "CNC(=O)/C(=N/OC)c1ccccc1CO/N=C(C)/C=C/c1snc(Cl)c1Cl [CL04-32D]",
    "inhibition at 50 µg/mL, %": 73.3
  },
  {
    "compound": "CO/N=C(/C(=O)NCC(F)F)c1ccccc1CO/N=C(C)/C=C/c1snc(Cl)c1Cl [CL04-32A]",
    "inhibition at 50 µg/mL, %": 53.3
  },
  {
    "compound": "CO/N=C(/C(=O)N[C@@H](C)CSC)c1ccccc1CO/N=C(\\C)c1snc(Cl)c1Cl [CL04-22F]",
    "inhibition at 50 µg/mL, %": 52.9
  }
]

Alright, here's another compound for you.
Q: // query inhibition at 50 µg/mL value for entry CO/N=C(/C(=O)NC(C)(C)CSC)c1ccccc1CO/N=C(\C)c1snc(Cl)c1Cl [CL04-22E]
Result: 29.4

----------
# System: TMV
# protocol: Anti-TMV activity on tobacco, curative mode
# Type: in vivo, tobacco mosaic virus
# test.parameters: Tobacco mosaic virus, 100 μg/mL, tobacco; read-out: Anti-TMV activity inhibition, Curative effect
reported.endpoint: inhibition at 100 µg/mL (%)
Express it in %; write the number only.

Check out these entries, answers already filled in.
[
  {
    "compound": "CO/N=C(/C(=O)N[C@@H](C)CSC)c1ccccc1CO/N=C(\\N)c1snc(Cl)c1Cl [CL04-25E]",
    "inhibition at 100 µg/mL / %": 19.1
  },
  {
    "compound": "CO/N=C(/C(=O)NC1CC1)c1ccccc1CO/N=C(\\N)c1snc(Cl)c1Cl [CL04-25B]",
    "inhibition at 100 µg/mL / %": 20.5
  },
  {
    "compound": "CO/C=C(/C(=O)OC)c1ccccc1CO/N=C(\\C)CC(=O)c1snc(Cl)c1Cl",
    "inhibition at 100 µg/mL / %": 19.1
  },
  {
    "compound": "CO/C=C(/C(=O)OC)c1ccccc1CO/N=C(C)/C=C/c1snc(Cl)c1Cl",
    "inhibition at 100 µg/mL / %": 22.4
  }
]

Q: # query: inhibition at 100 µg/mL of entry `CO/N=C(/C(=O)NCC(F)F)c1ccccc1CO/N=C(\N)c1snc(Cl)c1Cl`
Result: 15

Q: Recorded inhibition at 100 µg/mL of CO/N=C(/C(=O)NCC(F)F)c1ccccc1CO/N=C(C)/C=C/c1snc(Cl)c1Cl [CL04-32A] , please.
Result: 1.52

Q: // query inhibition at 100 µg/mL value for entry CO/N=C(/C(=O)NC(C)(C)CSC)c1ccccc1CO/N=C(C)/C=C/c1snc(Cl)c1Cl [CL04-32E]
Result: 1.52

----------
Recorded melting point for the following compounds

Sample records with melting point:
[
  {
    "compound": "CO/N=C(/C(=O)NC1CC1)c1ccccc1CO/N=C(C)/C=C/c1snc(Cl)c1Cl [CL04-32C]",
    "melting point": "95 to 97 °C"
  },
  {
    "compound": "CO/C=C(/C(=O)OC)c1ccccc1CO/N=C/c1snc(Cl)c1Cl",
    "melting point": "61 to 63 °C"
  },
  {
    "compound": "CNC(=O)/C(=N/OC)c1ccccc1CO/N=C(\\C)c1snc(Cl)c1Cl [CL04-22D]",
    "melting point": "79 to 81 °C"
  }
]

Q: Could you share which melting point value was measured for CO/N=C(/C(=O)OC)c1ccccc1CO/N=C(\N)c1snc(Cl)c1Cl [CL04-15C] ?
Result: 104 to 106 °C

Q: GET /values?readout=melting point&item= CO/N=C(/C(=O)NCC(F)F)c1ccccc1CO/N=C(C)/C=C/c1snc(Cl)c1Cl [CL04-32A]
Result: 98 to 100 °C

Q: Fill in: melting point of `CO/C=C(/C(=O)OC)c1ccccc1CO/N=C(\C)c1snc(Cl)c1Cl` is ___
Result: 100 to 102 °C

Q: May I ask what melting point has been recorded for `CO/N=C(/C(=O)OC)c1ccccc1CO/N=C(C)/C=C/c1snc(Cl)c1Cl` ?
Result: 105 to 107 °C

Q: Please look up its melting point: CO/N=C(/C(=O)NC(C)(C)CSC)c1ccccc1CO/N=C(\N)c1snc(Cl)c1Cl [CL04-25D]
Result: 28 to 30 °C

Q: Consider the compound shown here: CO/N=C(/C(=O)OC)c1ccccc1CO/N=C/c1snc(Cl)c1Cl [CL04-15B] What is its recorded melting point?
Result: 88 to 90 °C

Q: Record request: melting point value, item CNC(=O)/C(=N/OC)c1ccccc1CO/N=C(\N)c1snc(Cl)c1Cl [CL04-25C]
Result: 122 to 124 °C

Q: Would you mind telling me what melting point value was observed for `CO/C=C(/C(=O)OC)c1ccccc1CO/N=C(\N)c1snc(Cl)c1Cl` ?
Result: 105 to 107 °C

Q: What value of measured melting point is listed for CO/N=C(/C(=O)N[C@@H](C)CSC)c1ccccc1CO/N=C(\C)c1snc(Cl)c1Cl [CL04-22F] ?
Result: 35 to 37 °C

Q: Query (compound): `CO/C=C(/C(=O)OC)c1ccccc1CO/N=C(\C)CC(=O)c1snc(Cl)c1Cl` ; field requested: melting point
Result: 103 to 105 °C

Q: Would you kindly share the measured melting point for CO/N=C(/C(=O)OC)c1ccccc1CO/N=C(\C)c1snc(Cl)c1Cl [CL04-15A] ?
Result: 73 to 75 °C

Q: Record request: melting point value, item C#CCNC(=O)/C(=N/OC)c1ccccc1CO/N=C(C)/C=C/c1snc(Cl)c1Cl [CL04-32B]
Result: 92 to 93 °C

Q: Which melting point is reported for this compound? C#CCNC(=O)/C(=N/OC)c1ccccc1CO/N=C(\C)c1snc(Cl)c1Cl [CL04-22B]
Result: 120 to 122 °C

Q: Given the compound C#CCNC(=O)/C(=N/OC)c1ccccc1CO/N=C(\N)c1snc(Cl)c1Cl [CL04-25A] , what is its reported melting point?
Result: 106 to 108 °C

Q: GET /values?readout=melting point&item= `CO/N=C(/C(=O)NCC(F)F)c1ccccc1CO/N=C(\N)c1snc(Cl)c1Cl`
Result: 118 to 120 °C
